Please go through the items and note down their GI50.
# Tested on: MOLT-4
# Assay procedure: NCI tumour cell line growth inhibition, 48 h
Calls of active or inactive are those of the source. No stated cut-off is given here; in the data, active = GI50 up to about 1.1 µM and inactive = higher.

Known results for compounds:
Read off the recorded GI50 for CC1CC2OC(=O)CC2C[C@@H]1O[Si](C)(C)C(C)(C)C (stereo not given in full)
21.5 µM (inactive)

Recall and state the measured GI50 for `CN(C)c1ccc(/C=c2\sc3nnc(-c4cccnc4)n3c2=O)cc1` .
> 100 µM (inactive)

Write down GI50 measured for item C[C@H]1COC2=C1C(=O)C(=O)c1c2ccc2c1CCCC2(C)C [CRYPTOTANSHINONE]
4.24 µM (inactive)

Record GI50 per entry; entries follow.
1. COC(=O)C(Cc1nc2ccccc2nc1O)/C(=N\NC(C)(C)C)C(=O)Nc1c(C)cc(Br)cc1C (stereo not given)
2. CCOC(=O)c1sc2nc(SC)nc3c2c1N=CN3c1ccc(Br)cc1

["1.5 µM (inactive)", "> 100 µM (inactive)"]

---

# Test system: SK-MEL-2
# Assay procedure: NCI tumour cell line growth inhibition, 48 h
The source made the active and inactive calls. Cut-off read from the data, not from the text of the source: active = GI50 up to about 1.1 µM and inactive = higher.
I'd be grateful if you could share measured GI50 for these entries.

Please report GI50 for every entry that follows.
1. CN(C)c1ccc(/C=c2\sc3nnc(-c4cccnc4)n3c2=O)cc1
2. C[N+](C)(C)CCOP(=O)(O)OP(=O)([O-])OCC1CCC(n2ccc(N)nc2=O)O1 (stereo unspecified)
3. N#CCCSC(=S)C1CCCC1=N (stereo unspecified)
4. COc1cccc(OC)c1/C=N\N1C(=O)c2ccccc2C1=O
5. Fc1ccc(C(OCCN2CCC3CCC(C2)N3CCCc2ccccc2)c2ccc(F)cc2)cc1 (stereo unspecified)

1: > 100 µM (inactive); 2: > 100 µM (inactive); 3: > 100 µM (inactive); 4: 60.8 µM (inactive); 5: 3.48 µM (inactive)

Using known records, supply GI50 for `N=C(N)N/N=C/c1c(-c2ccccc2[N+](=O)[O-])nc2sccn12`
15.1 µM (inactive)

---

# Test system: PC-3
# Assay procedure: NCI tumour cell line growth inhibition, 48 h
Active and inactive are the calls of the source. Cut-off read from the data, not from the text of the source: active = GI50 up to about 1.1 µM and inactive = higher.
I would appreciate it if you answered using one of these outcomes: active, inactive

# lookup: test call for `CCOC(=O)Cn1c(=O)c2nc(SC)sc2n(-c2ccccc2)c1=O`
inactive

---
Write down the call the test reported for this compound. Item: `Nc1nccc(Nc2ccc(S(N)(=O)=O)cc2)n1`
inactive

Hi, sorry to bother you, what did the test record for `C[C@H]1COC2=C1C(=O)C(=O)c1c2ccc2c1CCCC2(C)C` ?
inactive

What classification did `COc1cc2c(cc1OCCCCCCCCCCN1C(=O)c3cccc4cccc(c34)C1=O)N=C[C@@H]1CCCN1C2=O` end up with in this test?
inactive

Could you kindly confirm the outcome this assay logged for Clc1cc2ncn(C3CCCCO3)c2cc1Cl (stereo unspecified) ?
inactive

Name the outcome recorded for `N#C/C(=C\n1ccc(=O)[nH]c1=S)C(N)=O` in the assay.
inactive

What was the test verdict on CC(=O)OCC1=CC2OC(=O)C3=COC(OC4OC(CO)C(O)C(O)C4O)C1C32 (stereo unspecified) ?
inactive

Record lookup: outcome of this test for `Nc1nc(Cl)cc(NC23CC4CC(CC(C4)C2)C3)n1` ?
inactive

Test call, this compound: N#CC1=C(N)OC2=C(CCCc3ccccc32)C1c1ccc([N+](=O)[O-])cc1 (stereo unspecified)
inactive

Kindly provide the recorded test outcome for the following compound: CC(=O)Nc1ccc(N2C(=O)CS(=O)(=O)C2c2cccc(Oc3ccccc3)c2)cc1 (stereo unspecified)
inactive

Check the results log: what was the call for c1ccc2c(c1)CCN1CCc3c([nH]c4ccccc34)C21 (stereo unspecified) ?
inactive

For Cc1cccc(C)c1NC(=O)C(=O)C(c1ccccc1Cl)S(=O)(=O)Cc1ccccc1Cl (stereo unspecified) , which call appears in the assay record?
inactive

Hello, I am checking results. What call was entered for `S=C(N/N=C/c1ccccn1)N1CCCCC1` ?
active

Recorded call for `CC[n+]1cnc(N)c2c(-c3ccc(Cl)cc3)cn(-c3ccc(C)cc3)c21` ?
inactive

Check the results log: what was the call for `CCOC(=O)c1nc2ccccc2nc1Oc1ccc(F)cc1` ?
inactive

Status in this test for `C=C(Br)CN(C(C)=O)C1CCCCC1` ?
inactive

Short answer needed: outcome of this test for `CC(C)C(O)(C(C)C)C(C)C` ?
inactive

I'd appreciate the recorded outcome for `O=[N+]([O-])c1cccc2nc3ccccc3c(NCCN(CCO)CCO)c12` from this test.
active

Can you look up the reported call for `O=c1[nH]c2ccccc2c(=O)c2cc3ccccc3cc12` for me?
inactive

Could you kindly confirm the outcome this assay logged for `C=C1[C@H]2O[C@H]2[C@@H](OC(C)=O)[C@@]2(C)[C@@H](OC(C)=O)C[C@@H](OC(=O)CCC)[C@@](C)(O)[C@@H]2[C@@H](OC(C)=O)[C@]2(O)[C@@H](C)C(=O)O[C@H]2[C@H]1Cl` ?
inactive

Which outcome was entered for the compound Cc1nn(-c2ccccc2)c2c1C(c1cc3ccccc3nc1Cl)NC(=O)N2 (stereo unspecified) in this test?
inactive
